assay details: small-molecule microarray binders of probe aLefty2, primary screen, biochemical, biotinylated probe, 635/667 nm fluorescence (AID 1094);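 note: score merges spot fluorescence near 667 nm with spot signal-to-noise ratio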
condition parameters: higher = more signal
Mark Not fulfilled for composite z-score values under 0.2, and Fulfilled for everything at or above.

[
  {
    "compound": "COc1cc(Br)cc(C(O)C2C=CC3C(=O)N(C)C(=O)C3N2N2CCCCC2)c1OC (stereo not drawn)",
    "assigned class": "Not fulfilled"
  },
  {
    "compound": "O=C(c1ccccc1)N1C(=O)[C@@]2(Cc3ccccc31)N=C(c1ccc(OCCCO)cc1)O[C@H]2c1ccccc1",
    "assigned class": "Fulfilled"
  },
  {
    "compound": "COc1cc(C(O)C2C=CC3C(=O)NC(=O)C3N2Nc2ccccn2)cc(OC)c1OC (stereo not drawn)",
    "assigned class": "Not fulfilled"
  },
  {
    "compound": "COC(=O)[C@@]1(CCC(=O)OC(C)(C)C)N=C(c2ccc(OCCCO)cc2)O[C@H]1c1ccccc1N=[N+]=[N-]",
    "assigned class": "Not fulfilled"
  },
  {
    "compound": "O=C(NCCN1CCOCC1)[C@@H]1c2ccccc2C(=O)N(C2CCCCC2)[C@H]1c1ccc(CO)cc1",
    "assigned class": "Not fulfilled"
  },
  {
    "compound": "O=C1O[C@H](c2ccccc2)[C@H](c2ccccc2)N2[C@H]1[C@@H](C(=O)N1CCCCCCC1)[C@]1(C(=O)Nc3ccc(C#CC4=CCCCC4)cc31)[C@H]2c1ccc(OCCO)cc1",
    "assigned class": "Fulfilled"
  },
  {
    "compound": "O=C1c2ccccc2[C@](Cc2ccccc2I)(C(=O)NCCN2CCOCC2)[C@H](c2ccc(CO)cc2)N1C1CCCCC1",
    "assigned class": "Fulfilled"
  },
  {
    "compound": "CCOC(=O)C1=C[C@@H](C(C)(C)C)N(S(=O)(=O)c2ccc(C)cc2)[C@H]1c1ccc(F)cc1",
    "assigned class": "Not fulfilled"
  }
]
